Known GI50 of a selection of compounds
Tested on: COLO 205
ASSAY COMMENT: NCI tumour cell line growth inhibition, 48 h
Activity calls are given as the source filed them. Rule as the data show it: active = GI50 up to about 1.1 µM and inactive = higher. Starred links: 1 amine or outer side, 2 acyl side, 3 side chain; linkers in the order of their positions; H or OH if unused. Positions of bridges follow the written chain, without caps; N, C: chain ends. Non-standard residues stand in square brackets, D forms with d. Residues, ends and D or L forms follow the SMILES beside them. ξ: configuration not given here. X37 = CC[C@H](C)[C@@H](N[*:1])[C@@H](O)CC(=O)O[C@H](C(=O)[C@H](C)C(=O)[*:2])C(C)C; NMeY = CN[C@@H](Cc1ccc(O)cc1)C(=O)O; dNMeL = CN[C@H](CC(C)C)C(=O)O; ξΔPro = O=C(O)C1C=CCN1
MEASURED PROPERTY: GI50

| COMPOUND | TARGET OR TEST SYSTEM | READING |
| --- | --- | --- |
| CC1(C)O[C@H]2OC(CO)C(OS(C)(=O)=O)[C@H]2O1 (some centres not stated) | COLO 205 | > 100 µM (inactive) |
| COC(=O)C1C(OC(=O)C(Cl)(c2ccccc2)c2ccccc2)CC2CCC1N2C (configuration not stated) | COLO 205 | > 100 µM (inactive) |
| O=c1[nH]n(Cc2ccccc2Cl)c2ccccc12 | COLO 205 | > 100 µM (inactive) |
| CC[C@H](C)[C@H]1NC(=O)[C@@H](NC(=O)[C@@H](CC(C)C)N(C)C(=O)C2C=CCN2)[C@@H](C)OC(=O)[C@H](Cc2ccc(OC)cc2)N(C)C(=O)[C@@H]2CCCN2C(=O)[C@H](CC(C)C)NC(=O)[C@@H](C)C(=O)[C@H](C(C)C)OC(=O)C[C@@H]1O (some centres not stated) (H-[ξΔPro][dNMeL]T[X37]LP[NMeY](Me); ester 3-C) | COLO 205 | < 0.005 µM (active) |
| Cc1c2oc(=O)c(C#N)cc2c2ccccn12 | COLO 205 | > 100 µM (inactive) |
| COc1ccc(CNc2nc3cc(C(F)(F)F)ccc3nc2C(=O)O)cc1OC | COLO 205 | 22.5 µM (inactive) |
| Cc1cc(/N=N/c2c(O)ccc3ccccc23)ccc1/N=N/c1cccc([N+](C)(C)C)c1 | COLO 205 | 2.47 µM (inactive) |
| COc1cccc(/C=C\c2ccc(O)cc2)c1 | COLO 205 | 48.1 µM (inactive) |
| C=C[C@@H]1OC(=O)O[C@H]1CO | COLO 205 | > 100 µM (inactive) |
| Cc1cc(C)c(S(=O)(=O)ONC(=O)OC(C)(C)C)c(C)c1 | COLO 205 | > 100 µM (inactive) |
| COC(=O)C1CC(c2ccc(Cl)cc2)=NO1 (configuration not stated) | COLO 205 | > 100 µM (inactive) |
| CSC1=C(C(=O)Nc2ccccc2)C(N)=NC1=O | COLO 205 | > 100 µM (inactive) |
| CN(C)/C=N\c1cccc2c1NSN2 | COLO 205 | > 100 µM (inactive) |
| CCOC(=O)C(C#N)C1=CC(=O)C(=O)c2ccc(OC)cc21 (configuration not stated) | COLO 205 | 17 µM (inactive) |
| NCCCn1c(Cl)nc2ccccc21 | COLO 205 | > 100 µM (inactive) |
| Cc1c(CCOC=O)c(=O)[nH]c2nncn12 | COLO 205 | > 100 µM (inactive) |
| CCCCNC(=S)Nn1c(-c2ccccc2)nc2ccccc2c1=O | COLO 205 | > 100 µM (inactive) |
| O[C@H]1[C@H]2c3cc4c(cc3CN3CCC(=C[C@@H]1O)[C@H]23)OCO4 [LYCORINE] | COLO 205 | 1.25 µM (inactive) |
| Nc1nc2c(ncn2C2C=CC(COS(N)(=O)=O)C2)c(=O)[nH]1 (configuration not stated) | COLO 205 | > 100 µM (inactive) |
| O=c1c2cc(I)ccc2nc(SCc2n[nH]c(=S)o2)n1Cc1ccccc1 | COLO 205 | 10.6 µM (inactive) |
| O=C(Cn1ccc(=O)[nH]c1=O)Nc1ccc(C(=O)O)c(O)c1 | COLO 205 | > 100 µM (inactive) |
| CC(C)[C@](O)(C(=O)OCC1=CC[N+]2([O-])CC[C@@H](O)[C@@H]12)[C@H](C)O (some centres not stated) [INDICINE N-OXIDE] | COLO 205 | > 5940 µM (inactive) |
| CCCCCc1c2nc(c(CCCCC)c3ccc([nH]3)c(CCCCC)c3nc(c(CCCCC)c4ccc1[nH]4)C=C3)C=C2 | COLO 205 | > 100 µM (inactive) |
| NC(=O)c1ncn(C2CCC(CP(=O)(O)O)C2)c1N (configuration not stated) | COLO 205 | > 100 µM (inactive) |
| CC(C)(C)OC(=O)N1C(c2cccnc2)=CC[C@H]2C3CC=C(c4cccnc4)[C@@]3(C)CC[C@@H]21 (some centres not stated) | COLO 205 | 1.74 µM (inactive) |
| O=S(=O)(CCBr)CCBr | COLO 205 | 3.21 µM (inactive) |
| COc1ccc2nccc(C3=CCC4CCN(C(=O)c5ccccc5)C3C4)c2c1 (configuration not stated) | COLO 205 | > 100 µM (inactive) |
| COc1ccc2[nH]c3c(c2c1)CCN(C)CC3 | COLO 205 | > 100 µM (inactive) |
| COC(=O)c1cc2c3c(c(C(C)=O)c(OC)c2[nH]1)NCC3 | COLO 205 | > 50 µM (inactive) |
| CCCNCC(=O)O[C@]1(CC)C(=O)OCc2c1cc1n(c2=O)Cc2cc3ccccc3nc2-1 | COLO 205 | 0.908 µM (active) |
| COC(=O)C1=C(C(=O)OC)C(C(=O)OC)C(C(=O)OC)=C1C(=O)OC | COLO 205 | > 100 µM (inactive) |
| CNc1cccc2c1C(C)C[C@]1(C)C(=O)Nc3ccccc3[C@H]21 (some centres not stated) | COLO 205 | 29.8 µM (inactive) |
| Nc1cc(=O)n(-c2ccccc2)c(=S)n1-c1ccccc1 | COLO 205 | > 100 µM (inactive) |
| Nn1c(-c2ccccc2)n[nH]c1=O | COLO 205 | > 100 µM (inactive) |
| N#Cc1cc(NC(=O)c2ccccc2)c(=O)n2c1[nH]c1ccccc12 | COLO 205 | 31.6 µM (inactive) |
| c1ccc(CSCCc2ccncc2)cc1 | COLO 205 | > 100 µM (inactive) |
| CN1CCC(c2c(O)cc(O)c3c(=O)cc(-c4ccccc4Cl)oc23)C(O)C1 (configuration not stated) | COLO 205 | 0.0811 µM (active) |
| C1=CC=C2NCCCCCCC/N=C3/C=CC=CC=C3NCCCCCCC/N=C\2C=C1 | COLO 205 | > 100 µM (inactive) |
| Oc1ccc2ccccc2c1OCc1nnc(CCCCCCCCc2nnc(COc3c(O)ccc4ccccc34)n2Nc2ccccc2)n1Nc1ccccc1 | COLO 205 | 0.399 µM (active) |
| Fc1ccc(-c2sc(-c3cccs3)cc2Cc2cccs2)cc1 | COLO 205 | > 100 µM (inactive) |
| CC(=O)NC1=C(NCCCl)C(=O)c2ccccc2C1=O | COLO 205 | 28.4 µM (inactive) |
| COc1c(C(C)(C)C)cc(CC2C(=O)C=CC2=O)cc1C(C)(C)C | COLO 205 | 6.75 µM (inactive) |
